As shown below, each of these binders has a reported % reduction of binding by control antibody value.
# experimental-system: T1, hIL-6R recombinant protein (plate-coated, Example 5) (human, UniProt P08887 20-358, limits assumed)
# T1 construct: also called antigen
# T1 sequence: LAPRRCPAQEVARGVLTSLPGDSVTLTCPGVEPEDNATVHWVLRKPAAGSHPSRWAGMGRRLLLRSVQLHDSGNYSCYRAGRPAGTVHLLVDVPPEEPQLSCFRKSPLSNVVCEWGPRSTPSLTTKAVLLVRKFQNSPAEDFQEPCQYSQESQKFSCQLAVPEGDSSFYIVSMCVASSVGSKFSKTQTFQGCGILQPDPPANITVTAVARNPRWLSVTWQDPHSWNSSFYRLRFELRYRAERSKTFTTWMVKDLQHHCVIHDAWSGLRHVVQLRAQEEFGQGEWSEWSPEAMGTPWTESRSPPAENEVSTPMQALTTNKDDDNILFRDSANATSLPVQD
# protocol: SPR (BIAcore) competition on hIL-6R; competitor: control antibody

# example entries with known answers
binder	result
VV3D8-4 (antibody, V domains shown, Human variable regions with mouse constant region) VH: EVQLVESGGGLVQPGRSLRLSCAASGFTFDDYALHWVRQAPGKGLEWVSGISWNSGRIGYADSVKGRFTISRDNAKNSLFLQMNSLRAEDTALYYCAKGRDAFDIWGQGTLVTVSS VL: DIQMTQSPSSVSASVGDRVTITCRASQGISSWLAWYQQKPGKAPKLLIYAASSLQSGVPSRFSGSGSGTDFTLTISSLQPEDFATYYCQQANSFPYTFGQGTKLEIK	97%
VQ8F11-21 (antibody, V domains shown, Human variable regions with mouse constant region; also called VQ8F11-21 mIgG2a) VH: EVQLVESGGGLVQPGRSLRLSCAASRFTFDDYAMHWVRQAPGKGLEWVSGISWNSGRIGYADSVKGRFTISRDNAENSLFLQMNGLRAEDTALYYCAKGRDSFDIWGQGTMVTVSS VL: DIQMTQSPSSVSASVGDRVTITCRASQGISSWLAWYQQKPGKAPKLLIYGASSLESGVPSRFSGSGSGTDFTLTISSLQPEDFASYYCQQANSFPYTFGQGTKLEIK	96%

IN: Suppose we examine the binder VV6A9-5 (antibody, V domains shown, Human variable regions with mouse constant region; also called VV6A9-5 mIgG2a) VH: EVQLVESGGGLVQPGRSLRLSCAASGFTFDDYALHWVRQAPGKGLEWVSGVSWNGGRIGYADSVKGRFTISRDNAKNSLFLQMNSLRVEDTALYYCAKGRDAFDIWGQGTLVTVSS VL: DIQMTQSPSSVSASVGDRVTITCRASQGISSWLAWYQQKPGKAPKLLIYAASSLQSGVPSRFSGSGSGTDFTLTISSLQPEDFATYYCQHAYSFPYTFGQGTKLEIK ; what % reduction of binding by control antibody value has been reported?
OUT: 96%
